Source of measurements: ChEMBL document CHEMBL1145097

- assayNotes: Amount in vivo in rat plasma after intraperitoneal dose of 3 mg/Kg
- Assay type: ADME, organism-based
- conditionDescription: ip, read-out: Plasma level
readoutKind: concentration (nM)
Write it as a number; the unit nM goes unstated.

Problem: Hello, please tell me recorded concentration for this one: Cc1cccc(C#Cc2ccccc2)n1
Result: 390
